Quick reference for inhibition at 30 µM among some compounds
Biological target: hP2X1R (Homo sapiens, UniProt P51575)
Construct: expressed in transfected cells; host or cells: CHO-K1
Sequence (P51575 whole entry): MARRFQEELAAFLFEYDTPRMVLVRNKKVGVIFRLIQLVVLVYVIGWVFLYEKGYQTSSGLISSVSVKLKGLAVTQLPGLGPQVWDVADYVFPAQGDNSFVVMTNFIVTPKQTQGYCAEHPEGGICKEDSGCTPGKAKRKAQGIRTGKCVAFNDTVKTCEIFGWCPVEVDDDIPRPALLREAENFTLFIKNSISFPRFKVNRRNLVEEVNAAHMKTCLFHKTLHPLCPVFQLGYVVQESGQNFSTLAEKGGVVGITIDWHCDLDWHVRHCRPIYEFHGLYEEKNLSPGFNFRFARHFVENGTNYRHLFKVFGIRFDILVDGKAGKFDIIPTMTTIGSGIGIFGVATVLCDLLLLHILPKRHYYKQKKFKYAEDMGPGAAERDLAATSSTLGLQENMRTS
Test: cell-based
Settings: CHO-K1; percent inhibition at 30 μM; agonist α,β-MeATP 1.0 μM; read-out: hP2X1R % inhib.
Report the figure in % without appending any unit label.

Cc1cc(-c2noc(=S)[nH]2)cc(N2C(=O)CC(=O)Nc3c2ccc2ccccc32)c1 [Compound 21r] ... 16
O=C1CC(=O)N(c2cc(-c3noc(=S)[nH]3)ccn2)c2ccc3ccccc3c2N1 [Compound 21s] ... 18

QUERY: Give the measured inhibition at 30 µM of O=C1CC(=O)N(c2cccc(-c3noc(=S)[nH]3)c2)c2cc(C#Cc3ccccc3)c3ccccc3c2N1 [Compound 21m] .
RESULT: 14

QUERY: One more compound: CCCCC#Cc1cc2c(c3ccccc13)NC(=O)CC(=O)N2c1cccc(-c2noc(=S)[nH]2)c1 [Compound 21o]
RESULT: 16

====

Biological target: hP2X2/3R (Homo sapiens, UniProt P56373+Q9UBL9)
Construct: expressed in transfected cells; host or cells: CHO-K1
Sequence (Q9UBL9 whole entry): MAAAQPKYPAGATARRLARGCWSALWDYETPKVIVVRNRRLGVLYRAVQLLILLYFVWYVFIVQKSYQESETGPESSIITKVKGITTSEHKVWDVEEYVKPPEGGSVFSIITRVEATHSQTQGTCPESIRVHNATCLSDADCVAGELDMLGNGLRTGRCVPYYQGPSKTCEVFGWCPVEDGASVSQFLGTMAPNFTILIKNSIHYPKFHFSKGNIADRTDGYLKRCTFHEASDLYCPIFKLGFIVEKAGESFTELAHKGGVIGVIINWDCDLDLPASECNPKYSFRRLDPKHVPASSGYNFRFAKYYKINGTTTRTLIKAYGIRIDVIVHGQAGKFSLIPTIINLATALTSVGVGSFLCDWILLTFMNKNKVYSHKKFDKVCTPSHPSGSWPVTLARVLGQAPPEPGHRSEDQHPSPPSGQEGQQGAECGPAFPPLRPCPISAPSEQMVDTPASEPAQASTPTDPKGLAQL
Sequence (P56373 whole entry): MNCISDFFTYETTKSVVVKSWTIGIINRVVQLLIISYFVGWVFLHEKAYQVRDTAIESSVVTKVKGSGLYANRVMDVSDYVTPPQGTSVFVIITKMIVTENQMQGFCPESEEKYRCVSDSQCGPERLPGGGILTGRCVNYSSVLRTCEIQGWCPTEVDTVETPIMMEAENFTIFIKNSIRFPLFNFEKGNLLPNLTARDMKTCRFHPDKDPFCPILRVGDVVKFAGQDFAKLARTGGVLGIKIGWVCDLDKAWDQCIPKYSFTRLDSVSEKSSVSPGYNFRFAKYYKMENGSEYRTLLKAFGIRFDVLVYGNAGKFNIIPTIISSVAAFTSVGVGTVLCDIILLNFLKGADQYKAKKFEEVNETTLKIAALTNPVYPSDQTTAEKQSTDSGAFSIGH
Assay: cell-based
Format: cell-based
Conditions: CHO-K1; percent inhibition at 30 μM; agonist α,β-MeATP 5.0 μM; read-out: hP2X2/3R % inhib.
attribute-measured: inhibition at 30 µM

O=C1CC(=O)N(c2cncc(-c3noc(=S)[nH]3)c2)c2ccc3ccccc3c2N1 [Compound 21t] ... 25%
O=C1CC(=O)N(c2cccc(-c3noc(=S)[nH]3)n2)c2ccc3ccccc3c2N1 [Compound 21v] ... 15%

QUERY: Fill blank: measured inhibition at 30 µM of the molecule O=C1CC(=O)N(c2cc(-c3noc(=S)[nH]3)ccn2)c2ccc3ccccc3c2N1 [Compound 21s] is ____.
RESULT: -6%

QUERY: And CCCCC#Cc1cc2c(c3ccccc13)NC(=O)CC(=O)N2c1cccc(-c2noc(=S)[nH]2)c1 [Compound 21o] ?
RESULT: 1%

QUERY: Cool, now O=C1CC(=O)N(c2cccc(-c3noc(=S)[nH]3)c2)c2cc(C#Cc3ccccc3)c3ccccc3c2N1 [Compound 21m]
RESULT: 5%

QUERY: Cc1cc(-c2noc(=S)[nH]2)cc(N2C(=O)CC(=O)Nc3c2ccc2ccccc32)c1 [Compound 21r] , same question.
RESULT: 5%

QUERY: Quick one: CCc1cc2c(c3ccccc13)NC(=O)CC(=O)N2c1cccc(-c2noc(=S)[nH]2)c1 [Compound 21p]
RESULT: 10%

QUERY: Query O=C1CC(=O)N(c2cccc(-c3noc(=S)[nH]3)c2)c2cc(C#Cc3cccnc3)c3ccccc3c2N1 [Compound 21n] next
RESULT: 13%

====

Target: hP2X2/3R (Homo sapiens, UniProt P56373+Q9UBL9)
Construct: expressed in transfected cells; host or cells: CHO-K1
Assay: cell-based
Format: cell-based
# maps each entry to its hP2X2/3R % inhib.

CCN(CC)CC.NCc1ccc2ccc3c(c2c1)NC(=O)CC(=O)N3c1cccc(-c2noc(=S)[nH]2)c1 [Compound 21q] ... 0%
CCN(CC)CC.[N-]=[N+]=NCc1ccc2ccc3c(c2c1)NC(=O)CC(=O)N3c1cccc(-c2noc(=S)[nH]2)c1 [Compound 21g] ... 4%
CCN(CC)CC.[N-]=[N+]=NCc1ccc2c(Br)cc3c(c2c1)NC(=O)CC(=O)N3c1cccc(-c2noc(=S)[nH]2)c1 [Compound 21h] ... −4%
CCN(CC)CC.Cc1ccc2c(Br)cc3c(c2c1)NC(=O)CC(=O)N3c1cccc(-c2noc(=S)[nH]2)c1 [Compound 21e] ... −5%
CCN(CC)CC.O=C1CC(=O)N(c2cccc(-c3noc(=S)[nH]3)c2)c2cc(-c3ccccc3)c3ccccc3c2N1 ... 10%

Read the next record carefully.
QUERY: Value lookup for hP2X2/3R % inhib.; key = CCN(CC)CC.[N-]=[N+]=NCc1ccc2c3c(ccc2c1)N(c1cccc(-c2noc(=S)[nH]2)c1)C(=O)CC(=O)N3 [Compound 21j]
RESULT: 2%
